Here, molecules appear alongside pKd reported for Endoplasmin (Canis lupus familiaris) in the literature.
Would you please state pKd, meaning minus log10 of the concentration in mol/L, as a bare number?

INPUT: Can you look up the measured pKd of `Nc1ncnc2c1nc(Sc1cc3c(cc1I)OCO3)n2CCCNC(=S)Nc1ccc(-c2c3ccc(=O)cc-3oc3cc(O)ccc23)c(C(=O)O)c1` for me?
OUTPUT: 8.18

INPUT: Can you look up the measured pKd of `COC(=O)c1c(O)cc(O)c(Cl)c1CCc1ccc(N)cc1Cc1ccccc1` for me?
OUTPUT: 6.62

INPUT: Can you look up the measured pKd of `CC(C)N(CCCn1c(Sc2cc3c(cc2I)OCO3)nc2c(N)ncnc21)C(=S)Nc1ccc(-c2c3ccc(=O)cc-3oc3cc(O)ccc23)c(C(=O)O)c1` for me?
OUTPUT: 7.51

INPUT: Can you look up the measured pKd of `COC(=O)c1c(O)cc(O)c(Cl)c1CCc1cccc(OC)c1Cc1ccccc1` for me?
OUTPUT: 6.14

INPUT: Can you look up the measured pKd of `COC(=O)c1c(O)cc(O)c(Cl)c1CCC(=O)NC1=CC(=O)C(OC)=CC1=O` for me?
OUTPUT: 6.28

INPUT: Can you look up the measured pKd of `COC(=O)c1c(O)cc(O)c(Cl)c1CCc1ccc(OC)cc1Cc1ccccc1` for me?
OUTPUT: 6.17

INPUT: Can you look up the measured pKd of `COC(=O)c1c(O)cc(O)c(Cl)c1CCc1ccccc1Cc1cccc(Cl)c1` for me?
OUTPUT: 4.92
